Can you tell me drug sensitivity score for the items I'm about to list?
# System: HepG2
# protocol.text: drug sensitivity score (DSS) for viability; higher = more toxic; extreme values may be limits of the assay
# measurement.parameters: 72 h
Numbers only.

Example cases with answers are listed next.
molecule: Cc1cc2c(C(N)=O)cccc2n1-c1nc2c(c(NCc3ccccc3)n1)COCC2 [CB-5083]
measurement.target: HepG2
drug sensitivity score: 17.3
//
molecule: CNC1CC(c2ccc(Cl)c(Cl)c2)c2ccccc21 (stereo not drawn) [indatraline]
measurement.target: HepG2
drug sensitivity score: 0
//
molecule: CSCC[C@H](NC(=O)[C@H](Cc1ccccc1)NC(=O)CNC(=O)CNC(=O)[C@@H](N)Cc1ccc(O)cc1)C(=O)O [metenkephalin]
measurement.target: HepG2
drug sensitivity score: 0
//
molecule: O=[N+]([O-])/C=C/c1ccc2c(c1)OCO2 [3,4-methylenedioxy-beta-nitrostyrene]
measurement.target: HepG2
drug sensitivity score: 0
//
molecule: O=C(O)[C@H](O)[C@@H](O)[C@H](O)[C@H](O)CO [sodium-gluconate]
measurement.target: HepG2
drug sensitivity score: 0

Batch: drug sensitivity score for all items listed.
1. Cc1ccc2c(c1)=C(c1ccccc1)C(C1=NN(C(=O)CCC(=O)O)C(c3ccc(Br)cc3)C1)C(=O)N=2 (stereo not drawn) [DQP-1105]
2. CCc1cnn2c(NCc3ccc[n+]([O-])c3)cc(N3CCCC[C@H]3CCO)nc12 [dinaciclib]
3. CCOC(=O)Nc1ccc2c(c1)N(C(=O)CN(C)C)c1ccccc1CC2 [tiracizine]
4. Nc1ncn([C@H]2C[C@H](O)[C@@H](CO)O2)c(=O)n1 [decitabine]
5. CN1CCC[C@@H]1CCO[C@](C)(c1ccccc1)c1ccc(Cl)cc1 [clemastine]
6. C=CC(=O)O [acrylate]

a:
[0, 34.5, 0, 6.6, 1.2, 0]

Batch: drug sensitivity score for all items listed.
1. Cc1nn(C)c2c1C(c1cccc(Cl)c1)=NCCN2 [zometapine]
2. CC1=C(CCC(=O)O)c2cc3[nH]c(cc4nc(cc5[nH]c(cc1n2)c(C)c5C(C)O)C(C)=C4C(C)O)c(C)c3CCC(=O)O (stereo not drawn) [hematoporphyrin]
3. Cc1[nH]c(=O)c(C#N)cc1-c1ccncc1 [milrinone]
4. N=C(N)S/C=C\C(=O)O [ZAPA]
5. CCS(=O)(=O)N(C)[C@H]1c2cc(C#N)ccc2OC(C)(C)[C@@H]1O [chromanol-293B-(-)-[3R,4S]]
6. OCc1c[nH]c2ccccc12 [indole-3-carbinol]
7. C[C@H](N)C(=O)N[C@@]1(C(=O)O)C[C@@H](Sc2nnc[nH]2)[C@H]2[C@H](C(=O)O)[C@H]21

a:
[0, 0.8, 0, 0, 0, 0, 0]

====

# System: Caco-2
# protocol.text: cell viability relative to DMSO; higher = less toxic
# measurement.parameters: 72 h; 10 nM
measure.name: cell viability (%)
Numbers only, in %.

compound: C[C@H](N)Cn1ccc2cc(F)c(Cl)cc21 [Ro-60-0175]
cell viability (%): 90.9

Batch: cell viability for all items listed.
1. C#Cc1cccc(Nc2ncnc3cc(OCCOC)c(OCCO)cc23)c1 [OSI-420]
2. CCCCCCCCCC(=O)O[C@H]1CC[C@H]2[C@@H]3CCC4=CC(=O)CC[C@@H]4[C@H]3CC[C@]12C [Nandrolone decanoate]
3. O=C1OC2(c3ccccc31)c1cc(I)c(O)c(I)c1Oc1c2cc(I)c(O)c1I [erythrosine]
4. C[C@]12CC[C@H](O)CC1=CC[C@@H]1[C@@H]2CC[C@]2(C)C(c3cccnc3)=CC[C@@H]12 [Abiraterone (CB-7598)]
5. Cc1cc2c(C(N)=O)cccc2n1-c1nc2c(c(NCc3ccccc3)n1)COCC2 [CB-5083]
6. C#C[C@]1(O)CC[C@H]2[C@@H]3CCc4cc(OC5CCCC5)ccc4[C@H]3CC[C@@]21C [quinestrol]
7. Cn1cnc([N+](=O)[O-])c1Sc1ncnc2[nH]cnc12 [azathioprine]
8. CNC(=O)c1ccc2cc([C@@]3(O)CCn4cncc43)ccc2c1 [orteronel]

a:
[101, 104, 98.7, 92.3, 92.8, 92.1, 86.8, 91.3]

Batch: cell viability for all items listed.
1. COc1ccn2ncc(-c3nc4[nH]nc(NC(=O)c5ccc(F)cc5)c4cc3F)c2c1 [CW-008]
2. CCS(=O)(=O)N(C)[C@H]1c2cc(C#N)ccc2OC(C)(C)[C@@H]1O [chromanol-293B-(-)-[3R,4S]]
3. CC1(COc2ccc(CC3SC(=O)NC3=O)cc2)CCCCC1 (configuration not stated) [ciglitazone]

a:
1. 92.5
2. 93.2
3. 99.2

Batch: cell viability for all items listed.
1. [Cl][Ru-]([Cl])([Cl])[Cl].[Na+].c1ccc2[nH]ncc2c1.c1ccc2[nH]ncc2c1 [NKP-1339]
2. Cc1ccccc1NC(=O)Nc1ccc(CC(=O)N(C)[C@@H](CC(C)C)C(=O)NCC[C@H](NC(=O)[C@@H]2CCCN2S(=O)(=O)c2cc(Cl)cc(Cl)c2)C(=O)O)cc1 [BIO-5192]

a:
[96.6, 97.3]

====

# System: Vero E6
# protocol.text: cell viability relative to DMSO; higher = less toxic
# measurement.parameters: 72 h; 100 nM
measure.name: cell viability
Note to self: number, then unit, no commentary.

Example cases with answers are listed next.
molecule: CC(C)=CCC/C(C)=C/CC/C(C)=C/CCC(=O)OC/C=C(\C)CCC=C(C)C [geranyl-farnesylacetate]
cell viability: 94.4%
//
molecule: CC(O)CN1CCN(CC(=O)[O-])CCN(CC(=O)[O-])CCN(CC(=O)[O-])CC1.[Gd+3] (stereo not drawn) [gadoteridol]
cell viability: 110%
//
molecule: COc1cc(C(=O)N(CC[C@H]2CCCN2C)C/C(C)=C/c2ccccc2F)cc(OC)c1OC (racemic)
cell viability: 103%
//
molecule: O=C(Nc1ccc(C(=O)O)c(O)c1)c1ccccc1 [benzoylpas]
cell viability: 105%
//
molecule: Nc1ncnc2c1ncn2[C@@H]1O[C@H](C[C@@H](N)CC[C@H](N)C(=O)O)[C@@H](O)[C@H]1O [sinefungin]
cell viability: 102%
//
molecule: Cc1nnc2n1-c1sc(CCC(=O)N3CCOCC3)cc1C(c1ccccc1Cl)=NC2 [apafant]
cell viability: 104%
//
molecule: O=C(NC1CCNCC1)c1n[nH]cc1NC(=O)c1c(Cl)cccc1Cl [AT-7519]
cell viability: 102%

Attention now turns to another entry.
q: # get_value(readout= cell viability, system= Vero E6) for CC(C(=O)O)c1ccc(C(=O)c2cccs2)cc1 (stereo not drawn) [suprofen]
a: 95.4%

====

Can you tell me drug sensitivity score for the items I'm about to list?
# Tested on: Caco-2
# protocol.text: drug sensitivity score (DSS) for viability; higher = more toxic; extreme values may be limits of the assay
# measurement.parameters: 72 h
Numbers only.

Example cases with answers are listed next.
molecule: c1ccc(CNc2ncnc3[nH]cnc23)cc1
drug sensitivity score: 0
--
molecule: COc1cc2ncnc(Nc3ccc(F)c(Cl)c3)c2cc1NC(=O)/C=C/CN1CCCCC1
drug sensitivity score: 5.6
--
molecule: CNC(=O)[C@H]1O[C@@H](n2cnc3c(NCc4cccc(I)c4)ncnc32)[C@H](O)[C@@H]1O
drug sensitivity score: 0

Batch: drug sensitivity score for all items listed.
1. COC(=O)[C@H](Cc1ccc([N+](=O)[O-])cc1)NC(=O)c1cccc2ccccc12
2. FC(F)(F)Oc1ccc2nc(-c3ccc(OCCOCCOc4ccc(-c5nc6ccc(OC(F)(F)F)cc6[nH]5)nc4)cn3)[nH]c2c1

a:
[0, 4.2]

Batch: drug sensitivity score for all items listed.
1. CSCC[C@H](NC(=O)[C@H](Cc1ccccc1)NC(=O)CNC(=O)CNC(=O)[C@@H](N)Cc1ccc(O)cc1)C(=O)O
2. CC[C@H](C)n1cc(C)c2c(C(=O)NCc3c(C)cc(C)[nH]c3=O)cc(-c3ccc(N4CCNCC4)nc3)cc21
3. Cc1nc(C#Cc2ccnc(Cl)c2)c(C)n1-c1ccc(OC(F)(F)F)cc1

a:
0
0
4

Batch: drug sensitivity score for all items listed.
1. Nc1ccc2cc3ccc(N)cc3nc2c1 [proflavine-hemisulfate]
2. C[C@H](N)[C@H](O)c1ccc(O)c(O)c1
3. CCCCCCCCCC(=O)O[C@H]1CC[C@H]2[C@@H]3CCC4=CC(=O)CC[C@@H]4[C@H]3CC[C@]12C [Nandrolone decanoate]
4. CC(=O)[C@@]12O[C@](C)(c3ccccc3)O[C@@H]1C[C@H]1[C@@H]3CCC4=CC(=O)CC[C@]4(C)[C@H]3CC[C@@]12C [algestone-acetophenide]

a:
[2.3, 0, 0, 0.7]

====

Can you tell me cell viability for the items I'm about to list?
# System: U2OS
# protocol.text: cell viability relative to DMSO; higher = less toxic
# measurement.parameters: 72 h; 10 nM
Answers are plain numbers, in %.

Batch: cell viability for all items listed.
1. COC(=O)N/N=C/c1c[n+]([O-])c2ccccc2[n+]1[O-]
2. CCNC(=O)/C=C/c1cccc(Br)c1 [cinromide]

a:
[97.4, 96.7]

Values from the supplement of paper PMC13380429
